Source listed as patent US8822517B2.

Target: dopaminergic D2 receptor (Homo sapiens, UniProt P14416)
Sequence (P14416 whole entry): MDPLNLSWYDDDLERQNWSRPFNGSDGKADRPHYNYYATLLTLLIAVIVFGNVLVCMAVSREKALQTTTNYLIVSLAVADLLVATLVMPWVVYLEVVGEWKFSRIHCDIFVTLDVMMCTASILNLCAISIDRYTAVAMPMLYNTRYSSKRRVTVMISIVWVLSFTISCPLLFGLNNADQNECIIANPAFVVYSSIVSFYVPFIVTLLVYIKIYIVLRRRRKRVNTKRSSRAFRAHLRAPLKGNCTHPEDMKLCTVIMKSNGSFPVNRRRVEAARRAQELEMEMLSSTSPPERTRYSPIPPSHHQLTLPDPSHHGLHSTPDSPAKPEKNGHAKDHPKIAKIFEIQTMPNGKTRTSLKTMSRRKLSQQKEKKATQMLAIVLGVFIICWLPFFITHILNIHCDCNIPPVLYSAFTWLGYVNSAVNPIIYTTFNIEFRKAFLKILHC
Test: Cellular functional assay, dopaminergic D2 receptor (agonism/antagonism)
Type: cell-based
Conditions: HEK293; read-out: D2-antag. [%]
Given measured inhibition at 1 µM, output true if it is greater than or equal to 90% and false if not.

Here are 3 molecules together with their reported answers.
O=S(=O)(NCCCCN1CCN(c2cccc3[nH]ccc23)CC1)c1cnc2ccccn12 | true
O=S(=O)(NCCCCN1CCC(c2noc3cc(F)ccc23)CC1)c1ccc(Br)cc1 | false
O=c1[nH]c2ccc(S(=O)(=O)NCCCCN3CCN(c4noc5ccccc45)CC3)cc2o1 | true

Entry O=S(=O)(NCCCCN1CCC(c2noc3cc(F)ccc23)CC1)c1ccc2ccccc2c1 : is its inhibition at 1 µM no less than 90%?
true

Record: O=S(=O)(NCCCCN1CCN(c2cccc3[nH]ccc23)CC1)c1ccc(F)cc1
true

Record: O=S(=O)(NCCCCN1CCN(c2noc3ccccc23)CC1)c1cc2ccc(Cl)cc2s1
false

Record: O=S(=O)(NCCCCN1CCN(c2cccc3[nH]ccc23)CC1)c1cccc(Cl)c1
true

Record: Cc1c(S(=O)(=O)NCCCCN2CCN(c3noc4ccccc34)CC2)sc2ccc(F)cc12
false

Record: O=S(=O)(NCCCCN1CCN(c2cccc3[nH]ccc23)CC1)c1ccc2cc(Cl)ccc2c1
false
